- System: monoclonal antibody Sol-55
- Protocol description: competitive inhibition ELISA (c-ELISA), monoclonal antibody Sol-55
- Type: binding, mouse
- Recorded conditions: Sol-55 (IgG2a); ± one standard deviation
Quantity name: IC50

The value of IC50 measured for the compound C[C@H]1CC[C@@H]2[C@@H](C)[C@H]3[C@H](C[C@H]4[C@@H]5CC=C6C[C@@H](O[C@@H]7O[C@H](CO)[C@H](O[C@@H]8O[C@@H](C)[C@H](O)[C@@H](O)[C@H]8O)[C@H](O)[C@@H]7O[C@@H]7O[C@@H](C)[C@@H](O)[C@@H](O)[C@H]7O)CC[C@]6(C)[C@H]5CC[C@]34C)N2C1 [α-chaconine] turned out to be 204 ± 19 ppb

Value source: patent US5614408A
